- experimental target: 11β-HSD1 (Homo sapiens, UniProt P28845)
- Sequence (P28845 whole entry): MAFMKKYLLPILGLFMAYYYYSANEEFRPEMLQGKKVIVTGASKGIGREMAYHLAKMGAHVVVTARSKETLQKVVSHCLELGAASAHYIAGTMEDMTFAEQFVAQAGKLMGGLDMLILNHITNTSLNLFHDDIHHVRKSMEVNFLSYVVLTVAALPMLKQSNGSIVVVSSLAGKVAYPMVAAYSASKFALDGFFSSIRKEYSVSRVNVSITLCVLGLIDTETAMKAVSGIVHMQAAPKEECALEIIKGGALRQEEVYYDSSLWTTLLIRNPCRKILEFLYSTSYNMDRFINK
- stated conditions: read-out: IC50 Range; Biological Test Example 1
pIC50: −log10 of the molar value.
endpoint: pIC50

# molecule, endpoint, reading
rows = [
    ("Cc1cc(-c2ccc([C@H](C)N3CCC(CCN4CCCS4(=O)=O)(c4ccccc4)OC3=O)cc2)ccn1 (stereo in doubt)", "pIC50", "> 7.00"),
]

###

- assay name: Biological Test Example 5: fraction unbound in human plasma (equilibrium dialysis)
- Type: in vitro ADME

# chemical string, Biological Test Example 5 (%)
data = [
    ("C[C@@H](c1ccc(-c2ccc(F)cn2)cc1)N1CC[C@](CC(C)(C)O)(c2ccccc2)OC1=O", 0.3),
    ("COc1ccc(-c2ccc([C@H](C)N3CC[C@](CCC(N)=O)(c4ccccc4)OC3=O)cc2)cn1", 1.8),
    ("Cc1ccc(-c2ccc([C@H](C)N3CC[C@](CC(C)(C)O)(c4ccccc4)OC3=O)cc2)nn1", 10.5),
    ("C[C@@H](c1ccc(-c2ccc(C#N)cn2)cc1)N1CC[C@](CC(C)(C)O)(c2ccc(F)cc2)OC1=O", 2),
    ("C[C@@H](c1ccc(-c2ccc(C#N)cn2)cc1)N1CC[C@](CC(C)(C)O)(c2ccccc2)OC1=O", 2),
    ("C[C@@H](c1ccc(-c2cnccn2)cc1)N1CC[C@](CC(C)(C)O)(c2ccccc2)OC1=O", 1.9),
    ("Cc1ncc(-c2ccc([C@H](C)N3CC[C@](CC(C)(C)O)(c4ccccc4)OC3=O)cc2)cn1", 2.7),
]

Attribution: patent US8569292B2
